growth by entry:
- Tested on: OVCAR-5 ovarian
- EXPERIMENT_SUMMARY: NCI-60 one-dose screen, 48 h (100 = growth as untreated, 0 = no growth, -100 = all killed)
- EXPERIMENTAL_PARAMETERS: 10 µM unless noted
The panel holds about 83,000 compounds, 20% with a hit somewhere; the sample as a whole holds those more often.
Field format: number, assumed %, no unit text.

Here are 4 compounds together with their reported answers.
| LINE_NOTATION | QUANTITY | UNITS_LABEL | OBSERVED |
| --- | --- | --- | --- |
| Cc1ccc(OCC(=O)Nc2ccc(Oc3ccccc3)cc2)c([N+](=O)[O-])n1 | growth | % | 84.4 |
| COc1ccc(-c2nc3sc4c(c3c(=O)[nH]2)CCCCCC4)cc1 | growth | % | 83.8 |
| O=C(Nc1nc2c(C(F)(F)F)cccc2s1)c1cc(Cl)ccc1O | growth | % | 29.3 |
| CCCCNCCCN(CCCC)CCCNCCCC | growth | % | 108 |

Ask | Provide measured growth on OVCAR-5 ovarian for O=c1[nH]c(SCc2ccccc2)nc2nc(Nc3ccc(NC(=S)Nc4ccccc4)cc3)nc(-c3ccc(O)cc3O)c12 please.
Reply | 87.5

---

- System: SNB-19 CNS
- EXPERIMENT_SUMMARY: NCI-60 one-dose screen, 48 h
- EXPERIMENTAL_PARAMETERS: 10 µM unless noted
This is part of a sample that, as a whole, favours compounds with a hit. Of some 83,000 tested, about 20% had one in any assay. Calls of active or inactive are those of the source. How the source made its calls: active means growth percent below 10; inactive means the rest.
Respond with a class label; see active, inactive

As a guide, the following entries are already answered.
| LINE_NOTATION | CATEGORY_LABEL |
| --- | --- |
| COc1ccc(CNC(=O)c2c(C)n([O-])c3ccc(OC)cc3[n+]2=O)cc1 | inactive |
| Cc1sc2nc(NCc3ccccc3)[nH]c(=O)c2c1C | inactive |
| Cc1nn(-c2nc3ccccc3s2)c(C)c1Oc1ccccc1O | inactive |
| CSc1nc2nc3c(nc2c(=O)n1C)C(=O)c1ccccc1C3=O | active |
| ICCC(c1ccccc1)(c1ccccc1)c1ccccc1 | inactive |

Ask | Please indicate how the test categorized O=C(COc1ccc(/C=C2\Cc3ccccc3C2=O)cc1)c1ccc(Cl)cc1 .
Reply | inactive

Ask | Field: outcome | Entry: COc1cnc2c(c1)C(=O)c1c-2n(CCCN2CCCC2)c(=O)c2cc(F)ccc12
Reply | inactive

Ask | Can you look up the reported call for CC(=O)c1nn(-c2ccccc2)c(=Nc2ccccc2)cc1C for me?
Reply | inactive

Ask | What was the test verdict on Nc1ccccc1-c1ccn[nH]1 ?
Reply | inactive

Ask | Give the logged outcome of this assay for the following molecule: C/C=C(/C(=C/C)c1ccc(O)cc1)c1ccc(O)cc1
Reply | inactive

Ask | Hello, I am checking results. What call was entered for NS(=O)(=O)c1ccc(-n2ncc3c(SCc4ccccc4)ncnc32)cc1 ?
Reply | inactive

---

- Test system: NCI-H460 lung
- EXPERIMENT_SUMMARY: NCI-60 one-dose screen, 48 h
- EXPERIMENTAL_PARAMETERS: 10 µM unless noted
Compounds without any hit were thinned out: in the full panel of roughly 83,000, 20% have a hit. Calls of active or inactive are those of the source. Rule for the calls: active = growth percent below 10; inactive = the rest.
Your reply should match one of these outcome classes. 1 (yes) for active, 0 (no) for inactive

See these solved cases before continuing.
| MOLECULE | CATEGORY_LABEL |
| --- | --- |
| CC(=O)Nc1ccc(C(=O)COc2ccc(/C=C3\CCc4ccccc4C3=O)cc2)cc1 | 0 (no) |
| COc1cc2c(cc1OC)C(CC1(O)CCCCC1)N(S(=O)(=O)c1ccc(C)cc1)CC2 (stereo not given) | 1 (yes) |
| CCSc1nc(-c2ccco2)n2nc(-c3ccco3)cc2n1 | 0 (no) |

Ask | Identify the outcome logged in this assay for the molecule shown: COc1ccc(Oc2ccccc2NC(=O)CNC(=O)c2cccc3ccccc23)cc1
Reply | 0 (no)

Ask | In this assay, the call recorded for Nc1ccc2c(c1)C(=O)c1cc(Cl)c(Cl)cc1-2 was what?
Reply | 0 (no)
